- Test system: CCRIS mutagenicity, Ames/micronucleus/aberration tests
- experiment_description: CCRIS mutagenicity studies
- condition_summary: Test System: UDS RODENT HEPATOCYTES; Strain/Indicator: THY INCORP (NON-S-PHASE); Metabolic Activation: NONE; Method: AUTORADIOGRAPHY
Calls of active or inactive are those of the source. No rule for the calls is given here.
Thanks in advance; please answer with one of these: TRUE for active, FALSE for inactive

O=C1c2ccccc2C(=O)c2cc(CO)ccc21
FALSE
C=CC1CO1 (stereo not drawn)
FALSE
CN(C)c1ccccc1
FALSE
c1ccc2ncccc2c1
TRUE

Tell me the assay call for COc1ccc(C)cc1N please.
FALSE

Tell me the assay call for Nc1ccc(N)c(S(=O)(=O)O)c1 please.
TRUE

Tell me the assay call for Nc1ccccc1[N+](=O)[O-] please.
FALSE

Tell me the assay call for Cc1ccc(N)c(Cl)c1 please.
TRUE

Tell me the assay call for Nc1cc(Cl)ccc1Cl please.
FALSE

Tell me the assay call for Nc1ccc([N+](=O)[O-])cc1Cl please.
FALSE

Tell me the assay call for Nc1cc(Cl)c(Cl)cc1Cl please.
FALSE

Tell me the assay call for Cc1ccc(Cl)c(N)c1 please.
FALSE

Tell me the assay call for O=CCCCC=O please.
TRUE
